System: lambsquarters
MEASUREMENT_PROTOCOL: Test B pre-/postemergence herbicide test
Format: in vivo, Chenopodium album
CONDITION: Postemergence, 500 g ai/ha; visual rating after 13 to 15 days, scale 0 (no effect) to 100 (complete control)
Protocol: […] At the same time, plants selected from these crop and weed species and also blackgrass (Alopecurus myosuroides Huds.), wheat (Triticum aestivum L.) and wild oat (Avena fatua L.) were treated with postemergence applications of test chemicals formulated in the same manner. […] Treated plants and controls were maintained in a greenhouse for 13 to 15 days, after which time all species were compared to controls and visually evaluated. […]
Mark satisfied only when Plant response rating, Lambsquarters stays strictly below 60. Values equal to the cut-off are not satisfied.

Ask: Does the reported Plant response rating, Lambsquarters of CCn1nc(C(C)(C)C)cc1C(=O)Nc1cc(C(=O)OC(C)C)c(OC)cc1F stay below 60?
Result: not satisfied

Ask: In the record for C=CCOC(=O)c1cccc(NC(=O)c2cc(C(C)(C)C)nn2CC)c1C , is Plant response rating, Lambsquarters less than 60?
Result: not satisfied

Ask: Bench note: check whether CCCn1nc(C(C)(C)C)cc1C(=O)Nc1cccc(C(=O)NCC)c1 shows Plant response rating, Lambsquarters below 60
Result: not satisfied

Ask: In plain terms, does CCOC(=O)c1cccc(NC(=O)c2cc(C(C)(C)C)nn2CCF)c1 come in under 60 for Plant response rating, Lambsquarters?
Result: not satisfied

Ask: Plant response rating, Lambsquarters strictly < 60 for this compound? CCn1nc(C(C)(C)C)cc1C(=O)Nc1ccc(C)c(C(=O)OC(C)C)c1
Result: satisfied

Ask: Below 60 on Plant response rating, Lambsquarters? Entry CCn1nc(C(C)(C)C)cc1C(=O)Nc1ccc(F)c(C(=O)NCCF)c1
Result: not satisfied

Ask: For this compound, is Plant response rating, Lambsquarters lower than 60? CCn1nc(C(C)(C)C)cc1C(=O)Nc1cccc(C(=O)OC(C)C)c1C
Result: satisfied

Ask: Hello, is Plant response rating, Lambsquarters of the following compound strictly smaller than 60? CCCCn1nc(C(C)(C)C)cc1C(=O)Nc1cccc(C(=O)NCC)c1
Result: not satisfied

Ask: Is the reported Plant response rating, Lambsquarters for CCn1nc(C(C)(C)C)cc1C(=O)Nc1cccc(C(=O)OC)c1C strictly below 60?
Result: satisfied

---

Tested on: morningglory
MEASUREMENT_PROTOCOL: Test A pre-/postemergence herbicide test
Type: in vivo, Ipomoea spp.
CONDITION: Postemergence, 500 g ai/ha; 0 to 100 scale, 0 no effect, 100 complete control
READOUT_NAME: Morningglory plant response rating
Simply state the number, no unit and no words.

Ask: Please report Morningglory plant response rating for the following compound: CC(=O)c1cccc(NC(=O)c2cn(C(C)C)nc2C)c1
Result: 10

Ask: Give reported Morningglory plant response rating value for Cc1nc(C(C)(C)C)sc1C(=O)Nc1cccc(C(=O)NCC(F)(F)F)c1
Result: 25

Ask: // Input: CCn1nc(C(C)(C)C)cc1C(=O)Nc1cccc(C(=O)OCC2CC2)c1C . Output its Morningglory plant response rating only.
Result: 5

---

Task for the reader: assign each of the following molecules its reported Plant response rating, Pigweed.
Tested on: pigweed
MEASUREMENT_PROTOCOL: Test B pre-/postemergence herbicide test
Type: in vivo, Amaranthus retroflexus
CONDITION: Postemergence, 500 g ai/ha; visual rating after 13 to 15 days, scale 0 (no effect) to 100 (complete control)
Format: numeric value only, no unit, no commentary.

Ask: Please indicate recorded Plant response rating, Pigweed of CCn1nc(C(C)(C)C)cc1C(=O)Nc1cccc2c1CNC2=O measured with pigweed.
Result: 10

Ask: Answer briefly: Plant response rating, Pigweed recorded on pigweed for COc1ccc(C(C)=NO)cc1NC(=O)c1cc(C(C)(C)C)nn1C
Result: 10

Ask: Report Plant response rating, Pigweed from pigweed testing of CCC(=NO)c1cccc(NC(=O)c2cc(C(C)(C)C)nn2C)c1
Result: 100

Ask: Would you please give the reported Plant response rating, Pigweed of C=CCOC(=O)c1cccc(NC(=O)c2cc(C(C)(C)C)nn2CC)c1C with pigweed?
Result: 30

Ask: Answer briefly: Plant response rating, Pigweed recorded on pigweed for CCn1nc(C(C)(C)C)cc1C(=O)Nc1cccc(C(C)=NO)c1
Result: 100

Ask: Enter measured Plant response rating, Pigweed, system pigweed, for the molecule shown: CCn1nc(C(C)(C)C)cc1C(=O)Nc1ccc(F)c(C(=O)NCCF)c1
Result: 70

Ask: Give reported Plant response rating, Pigweed for CCOC(=O)c1cccc(NC(=O)c2cc(C(C)(C)C)nn2CCF)c1 (pigweed)
Result: 100

Ask: Enter measured Plant response rating, Pigweed, system pigweed, for the molecule shown: CCn1nc(C(C)(C)C)cc1C(=O)Nc1cc(C(=O)OC(C)C)c(OC)cc1F
Result: 90

These measurements were taken from patent US20060069132A1.
